assay: Stability in liver microsomes, human
In this section, each of the molecules is paired with its reported Trep Concentration 60 min.
Mention the unit after the number when you answer.

These solved cases illustrate the format of a correct answer.
CCCCCC(CCC1C(O)CC2Cc3c(cccc3OCC(=O)O)CC21)OC(=O)CCN (stereo not shown)	0.00987 µM
CCCCCC(CCC1C(O)CC2Cc3c(cccc3OCC(=O)O)CC21)OC(=O)c1ccc(O)cc1 (stereo not shown)	0.178 µM

Okay, now this molecule:
Inquiry: Any idea what Trep Concentration 60 min was measured for CCCCCC(CCC1C(O)CC2Cc3c(cccc3OCC(=O)O)CC21)OC(=O)C(C)C (stereo not shown) ?
Reply text: 0.393 µM

* * *

test: Hydrolysis of prodrugs to treprostinil at pH 6, 7, 8 and 40 C; assay type: physicochemical; settings: pH 7, 40 C., 3 weeks
Readout Name: Hydrolysis to treprostinil, % Area, t = 3 weeks (% Area)
Only the number, expressed in % Area, is required.

Inquiry: Any idea what Hydrolysis to treprostinil, % Area, t = 3 weeks was measured for CCCCCC(CCC1C(OC(=O)CC)CC2Cc3c(cccc3OCC(=O)O)CC21)OC(=O)CC (stereo not shown) [Prodrug LXX, treprostinil dipropionate] ?
Reply text: 0.00

Inquiry: Subsequent entry: CCCCCC(CCC1C(O)CC2Cc3c(cccc3OCC(=O)O)CC21)OC(=O)c1ccc(O)cc1 (stereo not shown) [Prodrug LXVIII]
Reply text: 0.00

Inquiry: Subsequent entry: CCCCCC(CCC1C(O)CC2Cc3c(cccc3OCC(=O)O)CC21)OC(=O)COc1ccc(OC(F)(F)F)cc1 (stereo not shown) [Prodrug LXIV]
Reply text: 1.2

Inquiry: Subsequent entry: CCCCCC(CCC1C(O)CC2Cc3c(cccc3OCC(=O)O)CC21)OC(=O)COc1ccccc1 (stereo not shown) [Prodrug LXV]
Reply text: 2.7

* * *

assay: Stability in liver microsomes, rat
In this section, each of the molecules is paired with its reported Trep Concentration 0 min.
Only the number, expressed in µM, is required.

CCCCCC(CCC1C(O)CC2Cc3c(cccc3OCC(=O)O)CC21)OC(=O)COc1ccc(OC(F)(F)F)cc1 (centres unmarked)	0.803
CCCCCC(CCC1C(O)CC2Cc3c(cccc3OCC(=O)O)CC21)OCC(=O)O (centres unmarked)	0
CCCCCC(CCC1C(O)CC2Cc3c(cccc3OCC(=O)O)CC21)OCCN1CCOCC1 (centres unmarked)	0.00345
CCCCCC(CCC1C(O)CC2Cc3c(cccc3OCC(=O)O)CC21)OC(=O)C12CC3CC(CC(C3)C1)C2 (centres unmarked)	0.0251
CCCCCC(CCC1C(O)CC2Cc3c(cccc3OCC(=O)O)CC21)OC(=O)N1CCCCC1 (centres unmarked)	0

Inquiry: Any idea what Trep Concentration 0 min was measured for CCCCCC(CCC1C(O)CC2Cc3c(cccc3OCC(=O)O)CC21)OC(=O)c1cccc(O)c1 (centres unmarked) ?
Reply text: 0.0226

Inquiry: Subsequent entry: CCCCCC(CCC1C(O)CC2Cc3c(cccc3OCC(=O)O)CC21)OC(=O)C(C)C (centres unmarked)
Reply text: 0.281

Inquiry: Subsequent entry: CCCCCC(CCC1C(O)CC2Cc3c(cccc3OCC(=O)O)CC21)OC(=O)c1ccc(O)cc1 (centres unmarked)
Reply text: 0.00607

* * *

assay: Stability in human subcutaneous skin homogenate
Readout Name: Trep Concentration 30 min (µM)
Only the number, expressed in µM, is required.

CCCCC[C@@H](CC[C@@H]1[C@H]2Cc3cccc(OCC(=O)O)c3C[C@H]2C[C@H]1O)OC(=O)[C@@H](N)C(C)C	0.0333
CCCCCC(CCC1C(O)CC2Cc3c(cccc3OCC(=O)O)CC21)OC(=O)CO (centres unmarked)	0.0277
CCCCCC(CCC1C(O)CC2Cc3c(cccc3OCC(=O)O)CC21)OC(=O)NCC(=O)O (centres unmarked)	0

Inquiry: Any idea what Trep Concentration 30 min was measured for CCCCCC(CCC1C(O)CC2Cc3c(cccc3OCC(=O)O)CC21)OC(=O)NC (centres unmarked) ?
Reply text: 0

Inquiry: Subsequent entry: CCCCCC(CCC1C(OC(=O)CC)CC2Cc3c(cccc3OCC(=O)O)CC21)OC(=O)CC (centres unmarked) [Prodrug LXX, treprostinil dipropionate]
Reply text: 0.0179

Inquiry: Subsequent entry: CCCCCC(CCC1C(O)CC2Cc3c(cccc3OCC(=O)O)CC21)OC(=O)C(C)C (centres unmarked)
Reply text: 0.224

Inquiry: Subsequent entry: CCCCCC(CCC1C(O)CC2Cc3c(cccc3OCC(=O)O)CC21)OC(=O)CCC(=O)O (centres unmarked) [XX new]
Reply text: 0.00878

Inquiry: Subsequent entry: CCCCCC(CCC1C(O)CC2Cc3c(cccc3OCC(=O)O)CC21)OC(=O)N1CCCCC1 (centres unmarked)
Reply text: 0
